# target system: T1, hPRLR.mFc (soluble dimeric human PRLR) (human)
# T1 construct: dimeric PRLR construct
# T1 chain: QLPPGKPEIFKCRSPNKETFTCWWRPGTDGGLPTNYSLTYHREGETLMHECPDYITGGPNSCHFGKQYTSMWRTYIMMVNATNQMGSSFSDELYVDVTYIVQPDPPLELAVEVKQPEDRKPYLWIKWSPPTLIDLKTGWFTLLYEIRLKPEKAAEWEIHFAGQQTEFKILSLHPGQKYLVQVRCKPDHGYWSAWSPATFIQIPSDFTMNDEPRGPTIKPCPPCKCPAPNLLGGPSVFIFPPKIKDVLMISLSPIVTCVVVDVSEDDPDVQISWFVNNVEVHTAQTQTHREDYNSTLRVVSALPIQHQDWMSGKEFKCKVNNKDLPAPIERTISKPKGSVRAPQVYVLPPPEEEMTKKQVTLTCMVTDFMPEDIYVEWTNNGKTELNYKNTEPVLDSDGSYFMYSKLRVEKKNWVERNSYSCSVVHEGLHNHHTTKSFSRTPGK
# assay details: SPR (Biacore), antibody capture, 37 C
Please use 1.0 whenever kon is not below 500000 M⁻¹ s⁻¹, and 0.0 whenever it is.

binder	label class
H1H6782P (antibody, human IgG1, V domains shown, human IgG1 Fc (H1H)) VH: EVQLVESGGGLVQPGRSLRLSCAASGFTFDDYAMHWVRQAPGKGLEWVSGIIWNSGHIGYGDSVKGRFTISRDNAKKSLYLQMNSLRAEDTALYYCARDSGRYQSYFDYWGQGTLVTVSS VL: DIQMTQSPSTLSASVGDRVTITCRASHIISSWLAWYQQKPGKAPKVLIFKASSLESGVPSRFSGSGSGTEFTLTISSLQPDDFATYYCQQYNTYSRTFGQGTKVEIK	1.0

Hi team, for H1H6967N (antibody, human IgG1, V domains shown, also called H2M6967N) VH: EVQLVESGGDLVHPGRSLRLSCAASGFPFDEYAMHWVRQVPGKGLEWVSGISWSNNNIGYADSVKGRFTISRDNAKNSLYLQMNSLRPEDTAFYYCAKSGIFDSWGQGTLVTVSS VL: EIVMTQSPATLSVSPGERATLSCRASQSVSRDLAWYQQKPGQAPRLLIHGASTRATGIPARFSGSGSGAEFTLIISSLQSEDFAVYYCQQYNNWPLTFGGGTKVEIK , is the recorded kon at or above 500000 M⁻¹ s⁻¹?
1.0

Can you check H1H6781P (antibody, human IgG1, V domains shown, human IgG1 Fc (H1H)) VH: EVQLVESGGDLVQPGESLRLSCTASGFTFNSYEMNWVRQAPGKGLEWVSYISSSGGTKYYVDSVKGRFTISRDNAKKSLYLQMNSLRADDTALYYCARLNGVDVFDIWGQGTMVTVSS VL: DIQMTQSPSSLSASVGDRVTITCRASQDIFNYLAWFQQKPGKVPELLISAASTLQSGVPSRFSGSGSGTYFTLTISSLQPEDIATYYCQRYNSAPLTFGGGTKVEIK next?
0.0

Can you check H1H6960N (antibody, human IgG1, V domains shown, also called H2M6960N) VH: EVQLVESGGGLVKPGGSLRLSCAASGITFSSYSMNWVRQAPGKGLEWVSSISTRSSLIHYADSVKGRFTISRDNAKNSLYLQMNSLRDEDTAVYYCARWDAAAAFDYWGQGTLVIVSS VL: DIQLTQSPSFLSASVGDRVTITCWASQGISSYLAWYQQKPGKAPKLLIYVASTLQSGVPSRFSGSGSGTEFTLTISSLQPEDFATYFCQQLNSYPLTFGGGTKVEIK next?
0.0

Can you check H1H6800P (antibody, human IgG1, V domains shown, human IgG1 Fc (H1H)) VH: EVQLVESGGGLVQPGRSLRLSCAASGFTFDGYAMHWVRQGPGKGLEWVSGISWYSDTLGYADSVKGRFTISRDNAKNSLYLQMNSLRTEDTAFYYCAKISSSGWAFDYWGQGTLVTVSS VL: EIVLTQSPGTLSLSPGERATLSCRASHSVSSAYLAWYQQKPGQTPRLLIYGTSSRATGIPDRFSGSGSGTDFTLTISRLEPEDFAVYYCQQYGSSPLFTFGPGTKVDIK next?
1.0

Can you check H1H6797P (antibody, human IgG1, V domains shown, human IgG1 Fc (H1H)) VH: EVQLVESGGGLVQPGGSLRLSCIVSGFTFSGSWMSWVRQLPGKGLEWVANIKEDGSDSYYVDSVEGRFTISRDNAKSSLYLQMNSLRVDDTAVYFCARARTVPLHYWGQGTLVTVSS VL: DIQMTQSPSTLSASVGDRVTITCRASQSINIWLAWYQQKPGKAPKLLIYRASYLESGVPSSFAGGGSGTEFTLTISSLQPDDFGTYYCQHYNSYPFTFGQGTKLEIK next?
1.0

Can you check H1H6966N (antibody, human IgG1, V domains shown, also called H2M6966N) VH: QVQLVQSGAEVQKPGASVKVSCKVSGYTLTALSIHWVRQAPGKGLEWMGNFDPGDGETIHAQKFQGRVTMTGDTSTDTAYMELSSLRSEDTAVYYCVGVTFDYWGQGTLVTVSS VL: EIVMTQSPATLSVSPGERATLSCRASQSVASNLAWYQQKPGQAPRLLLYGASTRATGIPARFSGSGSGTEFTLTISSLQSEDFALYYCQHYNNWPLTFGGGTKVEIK next?
1.0

Can you check H1H6975N (antibody, human IgG1, V domains shown, also called H2M6975N) VH: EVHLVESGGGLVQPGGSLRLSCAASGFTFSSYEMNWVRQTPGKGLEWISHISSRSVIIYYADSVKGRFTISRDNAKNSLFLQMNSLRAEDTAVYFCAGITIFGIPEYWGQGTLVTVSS VL: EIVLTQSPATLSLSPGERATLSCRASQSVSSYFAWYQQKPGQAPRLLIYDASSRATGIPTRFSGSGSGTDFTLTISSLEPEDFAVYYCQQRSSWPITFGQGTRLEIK next?
0.0
